target: Single-stranded DNA cytosine deaminase (Homo sapiens); test: Confirmatory qHTS assay for inhibitors of Activation Induced Cytidine Deaminase (AID): AID signals; settings: recombinant AID, FRET deamination/UDG coupled fluorescence, 4 h; series mostly up to 115 µM; also: potency is read from the fitted curve at half-maximal effect
The campaign covered roughly 1,200 compounds. About 30 (2%) were called active. Another 23% or so got no clear call; they are omitted. The full list was thinned out, with actives kept by preference.
readout.type: Potency

Known Potency results, listed for orientation:
# compound, readout.type, value.observed
rows = [
    ("Cc1c(C(c2ccc(Cl)cc2Cl)c2c(O)c3ccccc3oc2=O)c(=O)n(-c2ccccc2)n1C (stereo not given)", "Potency", "inactive"),
    ("NC(Cc1cc(O)c(O)cc1O)C(=O)O (stereo not given)", "Potency", "22.4 µM (active)"),
    ("COc1cc(C(c2c(O)c3ccccc3oc2=O)c2c(C)n(C)n(-c3ccccc3)c2=O)ccc1O (stereo not given)", "Potency", "inactive"),
    ("O=C(Nc1cc(C(F)(F)F)cc(C(F)(F)F)c1)c1cccn(Cc2ccccc2Cl)c1=O", "Potency", "inactive"),
]

The record that follows has no Potency shown yet.
q: Reported Potency for Cc1ccccc1CN1C(=O)CN=C(c2ccccc2)c2cc(Cl)ccc21 : what is it?
a: inactive

----------
molecular target: Single-stranded DNA cytosine deaminase (Homo sapiens) (UniProt Q9GZX7); assay: Confirmatory qHTS assay for inhibitors of Activation Induced Cytidine Deaminase (AID): AID signals; conditions: recombinant AID, FRET deamination/UDG coupled fluorescence, 4 h; series mostly up to 115 µM
Sequence (Q9GZX7 whole entry, looked up): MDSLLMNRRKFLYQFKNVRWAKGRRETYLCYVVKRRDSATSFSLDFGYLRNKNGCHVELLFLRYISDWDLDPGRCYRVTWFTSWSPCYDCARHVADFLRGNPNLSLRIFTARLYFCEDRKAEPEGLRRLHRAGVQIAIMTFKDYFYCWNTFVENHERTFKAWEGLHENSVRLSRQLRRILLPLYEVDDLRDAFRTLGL
Hit rate of the full screen: of about 1,200 compounds, about 30 (2%) were called active. About 23% were inconclusive and are not listed. The call rests on the fitted dose curve; in most records, active means well fitted inhibition curve with a large enough effect; inconclusive means small, poorly fitted or top-dose-only effect; inactive means flat fitted curve, though single readings scatter. This is one part of a sample in which actives are shown more often than they occur.
Please answer using one outcome listed in True for active, False for inactive

q: For this molecule, state the assay outcome: O=C(c1ccc2c(c1)N(Cc1ccc(F)cc1)C(=O)c1ccccc1S2)N1CCC2(CC1)OCCO2
a: False

q: I would be grateful if you could indicate the recorded call for Cc1ccccc1CN1C(=O)C(C)N=C(c2ccccc2)c2ccccc21 (stereo unspecified) .
a: False

q: For NCC(O)c1cc(O)c(O)cc1F (stereo unspecified) , which call appears in the assay record?
a: False

q: Recorded test outcome, item CN1CC[C@@]2(C)c3cc(O)ccc3N(C)C12 (stereo partly specified)
a: True

q: Outcome? Cc1cccc(-c2nc(CN3C(=O)CN=C(c4ccccc4)c4ccccc43)c(C)o2)c1
a: False

q: Short answer needed: outcome of this test for CC(=O)c1c(O)c(C)c(O)c(Cc2c(O)c3c(c(C(=O)/C=C/c4ccccc4)c2O)OC(C)(C)C=C3)c1O ?
a: True
